B1: CPEB3 Ribozyme (parent)
chain: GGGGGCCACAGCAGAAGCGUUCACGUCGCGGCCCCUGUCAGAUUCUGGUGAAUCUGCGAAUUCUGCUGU

Variants of: B1
experimental details: self-cleavage, relative activity (ratio to wild type); higher = more cleavage; co-transcriptional
measure: self-cleavage
Kindly provide the number alone.

Reference set (8 entries):
A13U U43A :: 0.31
G5A G68U :: 0.948
G37C A52G :: 0.264
C12G U26G :: 0.729
A8G U43G :: 0.398
G19A G65A :: 0.0987
A40G C66U :: 0.982
C24U G68U :: 0.96

query: What measured self-cleavage goes with A23C G31U ?
result: 0.528

query: What measured self-cleavage goes with A16U A52G ?
result: 0.888

query: What measured self-cleavage goes with A51U G65U ?
result: 0.765

query: What measured self-cleavage goes with G1C U43A ?
result: 0.202

query: What measured self-cleavage goes with G31A G37C ?
result: 0.231

query: What measured self-cleavage goes with G58U A60G ?
result: 0.977

query: What measured self-cleavage goes with U20G G47A ?
result: 0.247
